For each record, write down the corresponding MIC99.
test system: Mycobacterium tuberculosis; assay: Antitubercular activity against Mycobacterium tuberculosis CNCTC My 331/88 (H37Rv) assessed as inhibition of bacterial growth measured after 21 days of incubation by Sulas semisynthetic medium based assay; assay type: functional; settings: 504 h, time 21 day
// return numeric value only (unit: µM, not printed)

Prompt line: Determine reported MIC99 for O=c1[nH]c(N2CCCC2)nc2ncn(Cc3ccc4ccccc4c3)c12 ; test system: Mycobacterium tuberculosis.
Response line: 16

Prompt line: Find MIC99 for COc1nc(N2CCOCC2)nc2ncn(Cc3ccc4ccccc4c3)c12 on Mycobacterium tuberculosis and write it down.
Response line: 4

Prompt line: With Mycobacterium tuberculosis as the test system, provide measured MIC99 for this molecule: c1ccc2cc(Cn3cnc4nc(N5CCOCC5)nc(N5CCOCC5)c43)ccc2c1
Response line: 125

Prompt line: System Mycobacterium tuberculosis. Read-out MIC99. Item c1ccc2cc(Cn3cnc4nc(N5CCOCC5)nc(NC5CCCCC5)c43)ccc2c1 . Report value.
Response line: 64

Prompt line: Provide MIC99, recorded with Mycobacterium tuberculosis, of CN(c1nc2ncn(Cc3ccc4ccccc4c3)c2c(=O)[nH]1)C1CC1
Response line: 16

Prompt line: Provide Mycobacterium tuberculosis MIC99 reading for c1ccc(CNc2nc(N3CCOCC3)nc3ncn(Cc4ccc5ccccc5c4)c23)cc1 .
Response line: 4
